# Target under test: Polyunsaturated fatty acid 5-lipoxygenase (Rattus norvegicus, UniProt P12527)
# Assay protocol: In vitro inhibition of RBL-1 5-lipoxygenase; Value ranges from […]
# Type: cell-based
pIC50: −log10 of the molar value.

Record smiles	Target under test	pIC50
CCOc1ccc(Cc2nc3c(C)ccc(O)c3[nH]2)cc1	Polyunsaturated fatty acid 5-lipoxygenase (Rattus norvegicus, UniProt P12527)	5.52

---

# Target under test: Polyunsaturated fatty acid 5-lipoxygenase (Rattus norvegicus, UniProt P12527)
# Sequence (P12527 whole entry): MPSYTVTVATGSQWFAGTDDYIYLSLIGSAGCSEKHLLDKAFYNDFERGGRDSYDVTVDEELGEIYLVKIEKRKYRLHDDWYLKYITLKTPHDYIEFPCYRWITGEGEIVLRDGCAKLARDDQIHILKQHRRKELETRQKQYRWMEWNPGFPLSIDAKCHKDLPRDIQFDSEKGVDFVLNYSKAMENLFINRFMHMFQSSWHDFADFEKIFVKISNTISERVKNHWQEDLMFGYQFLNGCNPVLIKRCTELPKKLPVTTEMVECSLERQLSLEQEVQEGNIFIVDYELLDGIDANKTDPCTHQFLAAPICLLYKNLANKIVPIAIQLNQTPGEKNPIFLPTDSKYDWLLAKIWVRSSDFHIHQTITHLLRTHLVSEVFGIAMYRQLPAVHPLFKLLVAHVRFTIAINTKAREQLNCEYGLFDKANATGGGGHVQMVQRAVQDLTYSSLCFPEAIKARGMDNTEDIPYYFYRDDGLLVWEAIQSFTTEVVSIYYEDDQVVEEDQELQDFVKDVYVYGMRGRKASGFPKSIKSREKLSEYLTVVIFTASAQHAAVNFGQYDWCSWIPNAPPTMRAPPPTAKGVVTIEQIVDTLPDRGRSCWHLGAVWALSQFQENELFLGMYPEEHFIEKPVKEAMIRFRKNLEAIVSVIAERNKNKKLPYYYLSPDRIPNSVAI
# Assay protocol: In vitro inhibition of RBL-1 5-lipoxygenase; Value ranges from 0.3-1.6
# Assay type: cell-based
Endpoint: IC50 (nM)

Record smiles	Endpoint	Assay result
Cc1ccc(O)c2[nH]c(Cc3ccc(Cl)cc3)nc12	IC50	1000
